# Test system: Colon carcinoma cell
# methodSummary: Cytostatic activity against human Colon carcinoma cells incubated for 48 hrs by SRB assay
# Assay type: functional
measurementName: TGI (µM)
Entry rule: numbers only, all in µM.

Some solved entries appear below for comparison.
smiles	TGI / µM
O=C1Nc2ccc(Cl)cc2/C1=C\c1ccc2ccc3ccc(/C=C4/C(=O)Nc5ccc(Cl)cc54)nc3c2n1	7.41
CC(C)(C)c1cc(/C=C2/C(=O)Nc3cccc(F)c32)c(O)c(/C=C2/C(=O)Nc3cccc(F)c32)c1	6.46
COc1ccc2[nH]c(Cl)c(/C=C3/C(=O)N(C)c4cc5c(cc43)/C(=C\c3c(Cl)[nH]c4ccc(OC)cc34)C(=O)N5C)c2c1	4.68
COc1ccc(OC)c2c1NC(=O)/C2=C/c1cccc(/C=C2/C(=O)Nc3c(OC)ccc(OC)c32)c1	63.1
CC(C)(C)c1cc(/C=C2/C(=O)Nc3cc(Cl)ccc32)c(O)c(/C=C2/C(=O)Nc3cc(Cl)ccc32)c1	13.2

Recorded result, COc1cc2c(cc1C)NC(=O)/C2=C/c1ccc2ccc3ccc(/C=C4/C(=O)Nc5cc(C)c(OC)cc54)nc3c2n1 , TGI: 10.2

Recorded result, COc1ccc2c(c1)/C(=C\c1ccc3ccc4ccc(/C=C5/C(=O)N(C)c6ccc(OC)cc65)nc4c3n1)C(=O)N2C , TGI: 6.31
